Data credit: patent US11311522B1

# Protocol: 4-week oral toxicology in rats (with FOB)
# Assay context: female, rat, plasma, po, 300 mg/kg/day, AUC24, Female rats, 300 mg/kg/day oral gavage, Day 28; mean (SD)
Property label: AUC (µM·h)
Expressed in µM·h, but write only the number.

Prompt line: What measured AUC goes with CC(C)c1ccc(CC(=O)N[C@H](C)c2ccc(OCC(F)(F)F)cn2)cc1 [CX-8998] ?
Response line: 438

---

# Protocol: in vivo
# Assay context: female, rat, po, 15 mg/kg
I'd appreciate it if you could supply AUC values for the items below.
Express the reported value numerically, then name its unit.

Prompt line: Would you kindly share the measured AUC for CC(C(=O)O)c1ccc(CC(=O)N[C@H](C)c2ccc(OCC(F)(F)F)cn2)cc1 (stereo partly shown) [M03] ?
Response line: 19.7 µM·h

Prompt line: What does the record list as AUC for CC(CO)c1ccc(CC(=O)N[C@H](C)c2ccc(OCC(F)(F)F)cn2)cc1 (stereo partly shown) [M04] ?
Response line: 8.04 µM·h

Prompt line: Look up AUC: C[C@@H](NC(=O)Cc1ccc(C(C)(C)O)cc1)c1ccc(OCC(F)(F)F)cn1 [M02]
Response line: 54.8 µM·h

Prompt line: Which AUC is reported for this compound? C=C(C)c1ccc(CC(=O)N[C@H](C)c2ccc(OCC(F)(F)F)cn2)cc1 [M01]
Response line: 20.3 µM·h
